Data origin: paper PMC9482650

# SYSTEM NAME: PICK1, Q9NRD5
# Sequence (Q9NRD5 17-115): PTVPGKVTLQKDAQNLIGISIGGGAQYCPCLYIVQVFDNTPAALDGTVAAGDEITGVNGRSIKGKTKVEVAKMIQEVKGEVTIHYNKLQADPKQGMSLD
# ASSAY COMMENT: holdup assay
# Design: key: below the threshold = too weak to quantify, mostly under pKd 3.1 to 4
# PROTOCOL CONDITIONS: plain residues with an end cap or a label only (N-terminal biotin on a linker: ado-ado)
PARAMETER MEASURED: pKd

SARSRLSSNL [HCN2, Q9UL51] | below the threshold
PDGQCTVTEV [RNF146, Q9NTX7] | below the threshold
LSEFKAMDSI [CTNNA1, P35221] | 4.08
TACCHSETVV [TGFA, P01135] | below the threshold
